tgt: native mouse MET on living mouse cells (mouse, UniProt P16056 25-1379)
protocol-notes: cell-based or functional assay
Listed binders paired with reported protection from staurosporine, viability EMAX, MLP29
# output: bare number, implied unit %

Worked cases, protection from staurosporine, viability EMAX, MLP29 given:
binder	unit-spec	value
chimeric llama-human IgG1 mAb 71D4 (antibody, V domains shown) VH: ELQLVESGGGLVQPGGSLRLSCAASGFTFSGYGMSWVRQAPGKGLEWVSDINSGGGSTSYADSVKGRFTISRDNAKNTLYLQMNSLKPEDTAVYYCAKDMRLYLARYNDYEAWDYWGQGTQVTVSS VL: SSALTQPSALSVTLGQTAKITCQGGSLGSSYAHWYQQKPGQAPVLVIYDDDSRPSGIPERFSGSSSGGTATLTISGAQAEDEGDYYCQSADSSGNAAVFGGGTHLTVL	%	52.1
chimeric llama-human IgG1 mAb 71G2 (antibody, V domains shown) VH: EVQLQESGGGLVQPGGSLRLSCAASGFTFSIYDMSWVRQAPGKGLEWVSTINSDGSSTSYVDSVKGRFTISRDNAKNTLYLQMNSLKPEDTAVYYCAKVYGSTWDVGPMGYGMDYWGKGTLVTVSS VL: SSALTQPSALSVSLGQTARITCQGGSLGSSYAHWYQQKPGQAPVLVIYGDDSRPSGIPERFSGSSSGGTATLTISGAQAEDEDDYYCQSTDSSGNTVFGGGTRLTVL	%	58.3

Next up:
// protection from staurosporine, viability EMAX, MLP29 lookup, key: chimeric llama-human IgG1 mAb 72F8 (antibody, V domains shown) VH: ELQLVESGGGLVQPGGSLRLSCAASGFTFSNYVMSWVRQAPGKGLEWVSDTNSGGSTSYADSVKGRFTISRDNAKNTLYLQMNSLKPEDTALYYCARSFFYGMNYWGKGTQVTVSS VL: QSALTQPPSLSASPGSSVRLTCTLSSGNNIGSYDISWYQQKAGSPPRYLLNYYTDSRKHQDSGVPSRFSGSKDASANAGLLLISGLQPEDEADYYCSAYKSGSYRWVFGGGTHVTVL
43.8
